These measurements were taken from patent US9302999B2.

Tested on: surinam grass (Brachiaria decumbens)
Assay: Test F pre-/postemergence: surinam grass
Format: in vivo
Conditions: Preemergence, 31 g ai/ha; scale 0 to 100, 0 no effect, 100 complete control
Outcome measure: Plant response rating, Surinam Grass
Reply briefly: the number, and no unit.

Structure notation: Cc1nn(-c2ccc(F)cc2F)nc1Oc1ccnc(C(F)(F)F)c1
Reported value: 0

Structure notation: CCc1nn(-c2ccc(F)cc2)nc1Cc1ccnc(C(F)(F)F)c1
Reported value: 10

Structure notation: CCOc1nn(-c2ccc(F)cc2)nc1Cc1ccnc(C(F)(F)F)c1
Reported value: 15

Then there is this compound:
-- ask If you can, please state the reported Plant response rating, Surinam Grass value of `Cc1nn(-c2ccc(C(F)(F)F)c(F)c2)nc1Oc1ccnc(C(F)(F)F)c1` .
-- reply 40
